Source: ChEMBL document CHEMBL6074634

test-method-notes: AUC (0 to 24 hrs) in male ICR mouse at 2.5 mg/kg, iv measured upto 24 hrs by LC-MS/MS analysis
Format: ADME, organism-based
measurement-context: in vivo
AUC(0-t) at 24 h for assorted molecules
Field: numeric (ng·h/mL). Do not append units.

Query :: Please give the measured AUC(0-t) at 24 h for this molecule: COc1cc2c3cc1Oc1c(OC)c(OC)cc4c1[C@H](Cc1ccc(cc1)Oc1cc(ccc1O)C[C@H]3N(C)CC2)N(C)CC4
Result :: 1300

Query :: Try this molecule next: COc1cc2c3cc1Oc1c(OC)c(OC)cc4c1[C@H](Cc1ccc(cc1)Oc1cc(ccc1C(N)=O)C[C@H]3N(C)CC2)N(C)CC4
Result :: 4120

Query :: Try this molecule next: COc1cc2c3cc1Oc1c(OC)c(OC)cc4c1[C@H](Cc1ccc(cc1)Oc1cc(ccc1C(=O)NC1CC1)C[C@H]3N(C)CC2)N(C)CC4
Result :: 1840

* * *

test-method-notes: Cytotoxicity against African green monkey Vero E6 cells assessed as cell viability by CCK-8 assay
Assay type: toxicity, cell-based, Vero C1008
measurement-context: African green monkey (Chlorocebus sabaeus)
experimental-endpoint: pIC50
By convention, pIC50 is the negative base-10 log of a molar concentration.

INSERT INTO results (compound, experimental_endpoint, experimental_result) VALUES
  ('COc1cc2c3cc1Oc1c(OC)c(OC)cc4c1[C@H](Cc1ccc(cc1)Oc1cc(cc([N+](=O)[O-])c1)C[C@H]3N(C)CC2)N(C)CC4', 'pIC50', 4.61),
  ('COc1cc2c3cc1Oc1c(OC)c(OC)cc4c1[C@H](Cc1ccc(cc1)Oc1cc(ccc1C(=O)NC1CCC1)C[C@H]3N(C)CC2)N(C)CC4', 'pIC50', 4.47),
  ('CCCCCNC(=O)c1ccc2cc1Oc1ccc(cc1)C[C@H]1c3c(cc(OC)c(OC)c3Oc3cc4c(cc3OC)CCN(C)[C@@H]4C2)CCN1C', 'pIC50', 4.65),
  ('C=CC(=O)Nc1ccc2cc1Oc1ccc(cc1)C[C@H]1c3c(cc(OC)c(OC)c3Oc3cc4c(cc3OC)CCN(C)[C@@H]4C2)CCN1C', 'pIC50', 4.51),
  ('COc1cc2c3cc1Oc1c(OC)c(OC)cc4c1[C@H](Cc1ccc(cc1)Oc1cc(ccc1C(=O)N1CCCCC1)C[C@H]3N(C)CC2)N(C)CC4', 'pIC50', 4.61),
  ('COc1cc2c3cc1Oc1c(OC)c(OC)cc4c1[C@H](Cc1ccc(cc1)Oc1cc(ccc1C(=O)NC1CCCC1)C[C@H]3N(C)CC2)N(C)CC4', 'pIC50', 4.65),
  ('COc1cc2c3cc1Oc1c(OC)c(OC)cc4c1[C@H](Cc1ccc(cc1)Oc1cc(ccc1O)C[C@H]3N(C)CC2)N(C)CC4', 'pIC50', 4.52),
  ('COc1cc2c3cc1Oc1c(OC)c(OC)cc4c1[C@H](Cc1ccc(cc1)Oc1cc(ccc1C(=O)NC15CC6CC(CC(C6)C1)C5)C[C@H]3N(C)CC2)N(C)CC4', 'pIC50', 5.31);

Query :: Please give the measured pIC50 for this compound: COc1cc2c3cc1Oc1c(OC)c(OC)cc4c1[C@H](Cc1ccc(cc1)Oc1cc(ccc1C1CC1)C[C@H]3N(C)CC2)N(C)CC4
Result :: 4.96

Query :: Try this compound next: COc1cc2c3cc1Oc1c(OC)c(OC)cc4c1[C@H](Cc1ccc(cc1)Oc1cc(ccc1C(=O)NC(C)C)C[C@H]3N(C)CC2)N(C)CC4
Result :: 4.58

Query :: Try this compound next: COc1cc2c3cc1Oc1c(OC)c(OC)cc4c1[C@H](Cc1ccc(cc1)OC1C=C(Cc5[nH]c(=O)oc51)C[C@H]3N(C)CC2)N(C)CC4 (some centres not stated)
Result :: 4.83

Query :: Try this compound next: COc1cc2c3cc1Oc1c(OC)c(OC)cc4c1[C@H](Cc1ccc(cc1)Oc1cc(ccc1C(C)=O)C[C@H]3N(C)CC2)N(C)CC4
Result :: 4.53

Query :: Try this compound next: COc1cc2c3cc1Oc1c(OC)c(OC)cc4c1[C@H](Cc1ccc(cc1)Oc1cc(ccc1C(=O)NCCOCCO)C[C@H]3N(C)CC2)N(C)CC4
Result :: 3.91

Query :: Try this compound next: COC(=O)c1ccc2cc1Oc1ccc(cc1)C[C@H]1c3c(cc(OC)c(OC)c3Oc3cc4c(cc3OC)CCN(C)[C@@H]4C2)CCN1C
Result :: 4.53

* * *

test-method-notes: Oral bioavailability in male ICR mouse at 10 mg/kg measured upto 24 hrs by LC-MS/MS analysis
Format: ADME, organism-based
measurement-context: in vivo
experimental-endpoint: bioavailability (%)
Field: numeric (%). Do not append units.

INSERT INTO results (compound, measurement_unit, experimental_result) VALUES
  ('COc1cc2c3cc1Oc1c(OC)c(OC)cc4c1[C@H](Cc1ccc(cc1)Oc1cc(ccc1C(=O)NC1CC1)C[C@H]3N(C)CC2)N(C)CC4', '%', 68.1),
  ('COc1cc2c3cc1Oc1c(OC)c(OC)cc4c1[C@H](Cc1ccc(cc1)Oc1cc(ccc1C(N)=O)C[C@H]3N(C)CC2)N(C)CC4', '%', 77.4);

Query :: Please give the measured bioavailability for this compound: COc1cc2c3cc1Oc1c(OC)c(OC)cc4c1[C@H](Cc1ccc(cc1)Oc1cc(ccc1O)C[C@H]3N(C)CC2)N(C)CC4 [AROMOLINE]
Result :: 34.5

* * *

test-method-notes: AUC (0 to 24 hrs) in male ICR mouse at 10 mg/kg, po measured upto 24 hrs by LC-MS/MS analysis
Format: ADME, organism-based
measurement-context: in vivo
AUC(0-t) at 24 h for assorted compounds
Include the unit after the number when you answer.

Some solved entries appear below for comparison.
INSERT INTO results (compound_string, experimental_endpoint, experimental_result) VALUES
  ('COc1cc2c3cc1Oc1c(OC)c(OC)cc4c1[C@H](Cc1ccc(cc1)Oc1cc(ccc1C(N)=O)C[C@H]3N(C)CC2)N(C)CC4', 'AUC(0-t) at 24 h', '12800 ng·h/mL'),
  ('COc1cc2c3cc1Oc1c(OC)c(OC)cc4c1[C@H](Cc1ccc(cc1)Oc1cc(ccc1O)C[C@H]3N(C)CC2)N(C)CC4', 'AUC(0-t) at 24 h', '1790 ng·h/mL');

# ---- query compound ----
Query :: Please give the measured AUC(0-t) at 24 h for this compound: COc1cc2c3cc1Oc1c(OC)c(OC)cc4c1[C@H](Cc1ccc(cc1)Oc1cc(ccc1C(=O)NC1CC1)C[C@H]3N(C)CC2)N(C)CC4
Result :: 5000 ng·h/mL

* * *

test-method-notes: Cytotoxicity against African green monkey Vero E6 cells assessed as cell viability by CCK-8 assay
Type: toxicity, cell-based, Vero C1008
measurement-context: African green monkey (Chlorocebus sabaeus)
experimental-endpoint: IC50 (µM)
Field: numeric (µM). Do not append units.

Some solved entries appear below for comparison.
INSERT INTO measurements (compound_string, experimental_endpoint, experimental_result) VALUES
  ('COc1ccc(NC(=O)c2ccc3cc2Oc2ccc(cc2)C[C@H]2c4c(cc(OC)c(OC)c4Oc4cc5c(cc4OC)CCN(C)[C@@H]5C3)CCN2C)cc1', 'IC50', 10.6),
  ('COc1cc2c3cc1Oc1c(OC)c(OC)cc4c1[C@H](Cc1ccc(cc1)Oc1cc(ccc1C(=O)Nc1cccnc1)C[C@H]3N(C)CC2)N(C)CC4', 'IC50', 26.4);

Query :: Please give the measured IC50 for this compound: COc1cc2c3cc1Oc1c(OC)c(OC)cc4c1[C@H](Cc1ccc(cc1)Oc1cc(ccc1C(=O)Nc1ccccc1)C[C@H]3N(C)CC2)N(C)CC4
Result :: 6.88
